target: Cyclin-dependent kinase 4/cyclin D1 (Homo sapiens, UniProt P11802); test: Inhibition of recombinant human N-terminal GST-tagged CDK4 (S4 to E303 residues)/Cyclin D1 (Q4 to I295 residues) expressed in sf9 cells using RBCTF as substrate measured after 1 hr by ADP-glo luminescence assay
Sequence (P11802 whole entry, the tested form may be a part): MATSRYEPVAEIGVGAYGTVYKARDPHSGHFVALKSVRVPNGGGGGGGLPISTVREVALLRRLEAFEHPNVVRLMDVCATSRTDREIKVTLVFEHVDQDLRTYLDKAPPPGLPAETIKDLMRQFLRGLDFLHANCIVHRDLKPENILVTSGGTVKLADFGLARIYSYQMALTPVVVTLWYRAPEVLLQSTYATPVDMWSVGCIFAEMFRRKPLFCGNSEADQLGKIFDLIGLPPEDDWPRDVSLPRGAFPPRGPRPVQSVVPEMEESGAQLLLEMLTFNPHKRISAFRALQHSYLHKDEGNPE
Sequence (P24385 whole entry, further chain, the tested form may be a part): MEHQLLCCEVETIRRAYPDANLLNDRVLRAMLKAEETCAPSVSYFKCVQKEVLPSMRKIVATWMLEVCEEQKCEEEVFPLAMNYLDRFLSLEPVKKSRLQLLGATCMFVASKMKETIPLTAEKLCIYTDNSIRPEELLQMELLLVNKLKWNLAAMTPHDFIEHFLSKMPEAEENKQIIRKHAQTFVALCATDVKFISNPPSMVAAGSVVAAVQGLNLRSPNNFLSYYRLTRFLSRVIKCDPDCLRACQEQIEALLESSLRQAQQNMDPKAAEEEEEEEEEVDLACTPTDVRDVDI
IC50 values for the molecules below.
MEASURED ENDPOINT: IC50 (µM)

>>> test_value("COc1ccc(-c2nc3ccccc3c(=O)[nH]2)cc1OCC(=O)NC1CCCCC1")
3.8
>>> test_value("O=C(COc1ccc(-c2nc3ccccc3c(=O)[nH]2)cc1)Nc1cccc(Cl)c1")
0.47
>>> test_value("COc1ccccc1NC(=O)COc1ccc(-c2nc3ccccc3c(=O)[nH]2)cc1OC")
1.5

###

tested on: A549; assay: cells; details: Homo sapiens, A549, 72 h
Description: Growth inhibition of human A549 cells measured after 72 hrs by propidium iodide staining based fluorescence assay
pEC50: −log10 of the molar value.
pEC50 reference
MEASURED ENDPOINT: pEC50

>>> test_value("COc1ccc(-c2nc3ccccc3c(=O)[nH]2)cc1OCC(=O)NC1CCCCC1")
5.12
>>> test_value("COc1cc(-c2nc3ccccc3c(=O)[nH]2)ccc1OS(C)(=O)=O")
5.15
>>> test_value("COc1ccccc1NC(=O)COc1ccc(-c2nc3ccccc3c(=O)[nH]2)cc1OC")
5.52
>>> test_value("O=C(COc1ccc(-c2nc3ccccc3c(=O)[nH]2)cc1)Nc1cccc(Cl)c1")
6.10

###

test system: T47D; assay: cells; details: Homo sapiens, 72 h
Description: Growth inhibition of human T47D cells measured after 72 hrs by propidium iodide staining based fluorescence assay
pEC50: −log10 of the molar value.
MEASURED ENDPOINT: pEC50

>>> test_value("COc1ccccc1NC(=O)COc1ccc(-c2nc3ccccc3c(=O)[nH]2)cc1OC")
5.40
>>> test_value("O=C(COc1ccc(-c2nc3ccccc3c(=O)[nH]2)cc1)Nc1cccc(Cl)c1")
6.12
>>> test_value("COc1cc(-c2nc3ccccc3c(=O)[nH]2)ccc1OS(C)(=O)=O")
5.10
>>> test_value("COc1ccc(-c2nc3ccccc3c(=O)[nH]2)cc1OCC(=O)NC1CCCCC1")
5.09

###

target: Cyclin-dependent kinase 4/cyclin D1 (Homo sapiens) (UniProt P11802+P24385); experiment: Inhibition of recombinant human N-terminal GST-tagged CDK4 (S4 to E303 residues)/Cyclin D1 (Q4 to I295 residues) expressed in sf9 cells at 10 uM using RBCTF as substrate measured after 1 hr by ADP-glo luminescence assay relative to control
Hi, to clarify the labels: YES covers inhibition from 40% upward, NO covers anything below 40%.

>>> assigned_category("O=c1[nH]c(-c2ccc(Br)cc2)nc2ccccc12")
"NO"
>>> assigned_category("C#CCOc1ccc(-c2nc3ccccc3c(=O)[nH]2)cc1OC")
"NO"
>>> assigned_category("COc1cc(-c2nc3ccccc3c(=O)[nH]2)ccc1OCc1ccc(F)cc1F")
"NO"
>>> assigned_category("O=C(COc1ccc(-c2nc3ccccc3c(=O)[nH]2)cc1)Nc1cccc2ccccc12")
"NO"
>>> assigned_category("Cc1ccc(NC(=O)COc2ccc(-c3nc4ccccc4c(=O)[nH]3)cc2)cc1")
"NO"
>>> assigned_category("O=c1[nH]c(-c2ccc([N+](=O)[O-])cc2)nc2ccccc12")
"NO"
>>> assigned_category("O=c1[nH]c(-c2ccc(O)cc2)nc2ccccc12")
"NO"
>>> assigned_category("O=C(COc1ccc(-c2nc3ccccc3c(=O)[nH]2)cc1O)Nc1ccc(Cl)cc1")
"NO"
>>> assigned_category("COc1cc(-c2nc3ccccc3c(=O)[nH]2)ccc1OS(C)(=O)=O")
"YES"
>>> assigned_category("O=C(COc1ccc(-c2nc3ccccc3c(=O)[nH]2)cc1)Nc1ccccc1")
"YES"
>>> assigned_category("O=C(COc1ccc(-c2nc3ccccc3c(=O)[nH]2)cc1)Nc1ccc2ccccc2c1")
"NO"
>>> assigned_category("COc1ccc(-c2nc3ccccc3c(=O)[nH]2)cc1OCC(=O)Nc1ccccc1C")
"NO"
>>> assigned_category("COc1ccc(-c2nc3ccccc3c(=O)[nH]2)cc1OCc1ccc(F)cc1F")
"YES"
>>> assigned_category("COc1ccc(-c2nc3ccccc3c(=O)[nH]2)cc1OCC(=O)NC1CCCCC1")
"YES"
>>> assigned_category("Oc1nc(-c2cccnc2)nc2ccccc12")
"NO"
>>> assigned_category("O=c1[nH]c(-c2ccc(OCc3ccc(F)cc3F)cc2)nc2ccccc12")
"NO"
>>> assigned_category("COc1cc(-c2nc3ccccc3c(=O)[nH]2)ccc1OCC(=O)Nc1ccc(F)cc1")
"NO"
>>> assigned_category("O=c1[nH]c(-c2ccc(Oc3ccc(F)cc3)cc2)nc2ccccc12")
"NO"
>>> assigned_category("CS(=O)(=O)Oc1ccc(-c2nc3ccccc3c(=O)[nH]2)cc1")
"YES"
>>> assigned_category("COc1ccc(-c2nc3ccccc3c(=O)[nH]2)cc1OCC(=O)Nc1ccccc1")
"NO"
>>> assigned_category("COc1ccccc1NC(=O)COc1ccc(-c2nc3ccccc3c(=O)[nH]2)cc1OC")
"YES"
>>> assigned_category("O=c1[nH]c(-c2cccc(O)c2)nc2ccccc12")
"NO"
>>> assigned_category("COc1ccc(-c2nc3ccccc3c(=O)[nH]2)cc1O")
"NO"
>>> assigned_category("COc1ccc(NC(=O)COc2cc(-c3nc4ccccc4c(=O)[nH]3)ccc2OC)cc1")
"NO"
>>> assigned_category("COc1cccc(NC(=O)COc2ccc(-c3nc4ccccc4c(=O)[nH]3)cc2OC)c1")
"NO"
>>> assigned_category("COc1ccccc1NC(=O)COc1cc(-c2nc3ccccc3c(=O)[nH]2)ccc1OC")
"NO"
>>> assigned_category("COc1ccc(-c2nc3ccccc3c(=O)[nH]2)cc1Oc1ccc(F)cc1")
"YES"
>>> assigned_category("O=C(COc1ccc(-c2nc3ccccc3c(=O)[nH]2)cc1)Nc1cccc(Cl)c1")
"YES"
>>> assigned_category("O=C(COc1ccc(-c2nc3ccccc3c(=O)[nH]2)cc1)NC1CCCCC1")
"NO"
>>> assigned_category("CCOc1ccc(NC(=O)COc2ccc(-c3nc4ccccc4c(=O)[nH]3)cc2OC)cc1")
"NO"
>>> assigned_category("CC(=O)c1c(C)c2cnc(Nc3ccc(N4CCNCC4)cn3)nc2n(C2CCCC2)c1=O")
"YES"
>>> assigned_category("COc1cc(-c2nc3ccccc3c(=O)[nH]2)ccc1Oc1ccc(Cl)cc1Cl")
"YES"
>>> assigned_category("O=C(COc1ccc(-c2nc3ccccc3c(=O)[nH]2)cc1)Nc1ccc([N+](=O)[O-])cc1")
"NO"

Values were extracted from ChEMBL document CHEMBL4480390.
